# SYSTEM: human IL-17AA (Homo sapiens, UniProt Q16552)
# Sequence (Q16552 24-155): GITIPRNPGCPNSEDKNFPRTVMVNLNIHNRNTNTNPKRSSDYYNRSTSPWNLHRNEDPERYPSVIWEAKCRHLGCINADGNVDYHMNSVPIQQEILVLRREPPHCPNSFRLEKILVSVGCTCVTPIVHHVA
# Sequence (Q16552 24-155): as above
# METHOD NOTES: IL-8 release assay in human epithelial keratinocytes adult (HEKa)
# DETAILS: HEKa cells; 3 ng/mL HEK-human IL-17AA + 10 ng/mL human TNFalpha; 68-72 hours; IL-8 by HTRF; read-out: Rel EC50 IL-8 release assay
MEASURED ATTRIBUTE: EC50 (nM)

Solved entries (count: 2):
COMPOUND	MEASURED RESULT
Cc1cccnc1-c1nnc(C(C(=O)Nc2ccc(-c3c(C)n[nH]c3C)cc2)C(C2CC2)C2CC2)[nH]1 (centres unmarked) [Example 60]	250
Cc1n[nH]c(C)c1-c1ccc(NC(=O)C(c2nnc(-c3ccccc3)[nH]2)C(C2CC2)C2CC2)cc1 (centres unmarked) [Example 1]	290

(1) Cc1n[nH]c(C)c1-c1ccc(NC(=O)C(c2nnc(Cc3ccccc3)[nH]2)C(C2CC2)C2CC2)cc1 (centres unmarked) [Example 17]
(2) COc1ccccc1-c1cnc(C(C(=O)Nc2ccc(-c3c(C)n[nH]c3C)cc2)C(C2CC2)C2CC2)[nH]1 (centres unmarked) [Example 9]
(3) Cc1n[nH]c(C)c1-c1ccc(NC(=O)C(c2nnc(-c3ccnn3C3CCC3)[nH]2)C(C2CC2)C2CC2)cc1 (centres unmarked) [Example 27]
Sort these compounds on EC50 so the largest reading comes first. Please list the labels according to the requested order.
2, 1, 3
(2: 450 nM, 1: 240 nM, 3: 32 nM)
